Could you please report measured protein stability index for the items listed next?
B1: PLD5 (parent)
chain: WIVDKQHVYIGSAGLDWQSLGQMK

Variants of: B1
Assay: protein stability index of a GFP-peptide fusion (GPS, HEK-293T) (PSI 1-6); higher = more stable;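 further: lentivirally expressed fusions sorted by FACS into six bins by GFP to DsRed ratio, PSI derived from sequencing read proportions per bin multiplied by bin number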
Details: c terminus: a fixed tail appended
// no unit, no text: just the number

Fill blank: measured protein stability index of the variant `L20H` is ____.
1.76

Entry to check: `M23Y`
1.84

Entry to check: `Q6R`
2.3

Entry to check: `S19H`
1.81

Entry to check: `S19R`
1.83

Entry to check: `W1V`
1.79

Entry to check: `K24M`
2.58

Entry to check: `S19T`
1.96

Entry to check: `H7P`
2.27

Entry to check: `K24L`
2.68

Entry to check: `W1K`
2.32

Entry to check: `A13C`
2.08

Entry to check: `L15G`
2.2

Entry to check: `A13V`
3.68

Entry to check: `Y9Q`
2.14

Entry to check: `Y9L`
1.64

Entry to check: `H7C`
1.37

Entry to check: `K5W`
2.34

Entry to check: `W17Y`
1.89

Entry to check: `G14K`
2.85

Entry to check: `I10M`
2.11

Entry to check: `L15M`
1.34

Entry to check: `S12V`
2.35

Entry to check: `Q22T`
2.97

Entry to check: `Q6G`
3.38
